FYI, the data here is from PubChem BioAssay AID651610.

PROTOCOL_DETAILS: inhibitors of HIV-1 Env-driven cell-cell fusion, primary screen, HeLa-JRFL effector, CEM21 target cells, luciferase (AID 651610)
EXPERIMENTAL_PARAMETERS: at 16.7 µM unless noted
The whole screen tested about 360,000 compounds, of which about 3,900 (1.1%) were called active.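 The calls were made as follows: active = mean replicate inhibition score of at least 50 and every replicate individually at or above 50; inconclusive = only one of the two criteria met; inactive = mean below 50 and not all replicates reaching 50.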 Shown is part of a subset that was picked to be rich in actives.
Outcome codes: active, inactive

# MOLECULE, ASSIGNED_CLASS
data = [
    ("C[C@@H]1CCCCO[C@@H](CN(C)C(=O)C2CCCCC2)[C@H](C)CN([C@H](C)CO)C(=O)c2cc(NC(=O)Cc3ccccc3)ccc2O1", "inactive"),
    ("NC(c1csc(NC(=O)Nc2cccc(C(F)(F)F)c2)n1)C1CCCCC1 (centres undefined)", "active"),
    ("O=C(C[C@H]1C=C[C@@H](NS(=O)(=O)c2ccc(F)cc2)[C@@H](CO)O1)NC1CCC1", "inactive"),
    ("CC(C)(C)OC(=O)CNC(=O)c1[nH]cnc1C(=O)N[C@@H](Cc1ccccc1)C(=O)OCc1ccccc1", "inactive"),
    ("O=C(Cc1ccncc1)NCC[C@H]1CC[C@H](NC(=O)C2CC2)[C@H](CO)O1", "inactive"),
    ("COc1ccc(NCCc2ccccn2)cc1", "inactive"),
    ("CC(C)NC(=O)N(C)C[C@H]1Oc2ncc(-c3cccc(C#N)c3)cc2C(=O)N([C@@H](C)CO)C[C@H]1C", "inactive"),
    ("COc1cncc(-c2cnc3sc(NCCc4ccccn4)nn23)c1", "active"),
    ("NC(c1ccccc1)c1csc(NC(=O)Nc2cccc(C(F)(F)F)c2)n1 (centres undefined)", "inactive"),
]
